- Test system: Phytophthora capsici (Pc)
- ASSAY INFO: In vitro pathogen growth inhibition assay, Pc
- Format: cell-based
- ASSAY CONTEXT: 48 h, ≥90% inhibition, 48 hours vs 2% DMSO control, read-out: Compound Concentration (ppm) sufficient for ≥90% inhibition of growth, Pc
READOUT KIND: IC90

[[record]]
structure = "COc1ccc(F)cc1[C@H](Cn1c(=O)n(C(C)(C)C(N)=O)c(=O)c2c(C)c(-n3cccn3)sc21)OC1CCOCC1"
result = "> 50 µg/mL"

[[record]]
structure = "COc1ccc(F)cc1[C@H](Cn1c(=O)n(C(C)(C)C(=O)NC(C)C)c(=O)c2c(C)c(-n3cccn3)sc21)OCCO"
result = "50 µg/mL"

[[record]]
structure = "COc1ccc(F)cc1[C@H](Cn1c(=O)n(C(C)(C)C(=O)N2CCCC2)c(=O)c2c(C)c(-n3cccn3)sc21)OC(C)C"
result = "> 50 µg/mL"

[[record]]
structure = "COc1ccccc1[C@H](Cn1c(=O)n(C(C)(C)C(=O)N2CCCCC2)c(=O)c2c(C)c(-n3nccn3)sc21)OC1CCOCC1"
result = "> 50 µg/mL"

[[record]]
structure = "COc1ccccc1[C@H](Cn1c(=O)n(C(C)(C)C(=O)NC2CCCCC2)c(=O)c2c(C)c(-n3nccn3)sc21)OC1CCOCC1"
result = "> 10 µg/mL"


* * *

- Test system: Phytophthora capsici (Pc)
- ASSAY INFO: In vitro pathogen growth inhibition assay, Pc
- Assay type: cell-based
- ASSAY CONTEXT: 48 h, ≥90% inhibition, 48 hours vs 2% DMSO control, read-out: Compound Concentration (ppm) sufficient for ≥90% inhibition of growth, Pc
READOUT KIND: IC90

[[record]]
structure = "COc1ccc(F)cc1[C@H](Cn1c(=O)n(C(C)(C)C(=O)N2CCCC2)c(=O)c2c(C)c(-n3cccn3)sc21)OC1CCOCC1"
readout_kind = "IC90"
result = "> 50 µg/mL"

[[record]]
structure = "COc1ccc(F)cc1[C@H](Cn1c(=O)n([C@@H](C)C(=O)NC(C)C)c(=O)c2c(C)c(-n3nccn3)sc21)OCCO"
readout_kind = "IC90"
result = "2 µg/mL"

[[record]]
structure = "CCOC(=O)c1sc2c(c1C)c(=O)n(C(C)(C)C(=O)N1CCOCC1)c(=O)n2C[C@H](OC(C)C)c1ccccc1OC"
readout_kind = "IC90"
result = "> 50 µg/mL"

[[record]]
structure = "COc1ccc(F)cc1[C@H](Cn1c(=O)n(C(C)(C)C(N)=O)c(=O)c2c(C)c(-c3ncco3)sc21)O[C@H]1CC[C@@H](O)CC1"
readout_kind = "IC90"
result = "> 50 µg/mL"

[[record]]
structure = "COc1ccc(F)cc1[C@H](Cn1c(=O)n(C(C)(C)C(=O)N2CC=CC2)c(=O)c2c(C)c(-n3nccn3)sc21)OC1CCOCC1"
readout_kind = "IC90"
result = "> 50 µg/mL"

[[record]]
structure = "COCCO[C@@H](Cn1c(=O)n([C@H](C)C(=O)N2CCCC2)c(=O)c2c(C)c(-n3nccn3)sc21)c1cc(F)ccc1OC"
readout_kind = "IC90"
result = "> 50 µg/mL"

[[record]]
structure = "COc1ccccc1[C@H](Cn1c(=O)n(C(C)(C)C(=O)NC(C)C)c(=O)c2c(C)c(-c3ncco3)sc21)OC1CCOCC1"
readout_kind = "IC90"
result = "> 50 µg/mL"

[[record]]
structure = "Cc1c(-n2nccn2)sc2c1c(=O)n(C(C)(C)C(=O)NC(C)C)c(=O)n2C[C@H](OC(C)C)c1cc(F)ccc1OCC1COC1"
readout_kind = "IC90"
result = "> 50 µg/mL"

[[record]]
structure = "COc1ccc(F)cc1[C@H](Cn1c(=O)n(C(C)(C)C(=O)NC(C)C)c(=O)c2c(C)c(-n3nccn3)sc21)OCCC(N)=O"
readout_kind = "IC90"
result = "≥ 50 µg/mL"

[[record]]
structure = "COc1ccccc1[C@H](Cn1c(=O)n(C(C)(C)C(=O)NC(C)C)c(=O)c2c(C)c(-n3cccn3)sc21)OCC(C)C"
readout_kind = "IC90"
result = "> 50 µg/mL"

[[record]]
structure = "COCCCO[C@@H](Cn1c(=O)n(C(C)(C)C(=O)N2CCCC2)c(=O)c2c(C)c(-n3nccn3)sc21)c1cc(F)ccc1OC"
readout_kind = "IC90"
result = "> 50 µg/mL"

[[record]]
structure = "COCCCO[C@@H](Cn1c(=O)n(C(C)(C)C(=O)NC(C)C)c(=O)c2c(C)c(-n3nccn3)sc21)c1cc(F)ccc1OC"
readout_kind = "IC90"
result = "> 50 µg/mL"

